The entries below come with measured BL (binding late) values attached.
- tgt: T1, human recombinant HER3 Extracellular Domain (HER3 ECD) (human, UniProt P21860 20-643)
- T1 construct: 68 kDa; also called human-Her3-ECD
- method: SPR Biacore 4000 kinetic screening, antibody captured, analyte 150 nM, 25 C

binder: anti-HER3 antibody M-46-01 (antibody, V domains shown, mouse hybridoma clone) VH: QIQLQQSGPQLVRPGASVKISCKASGYSFTSYWMHWVKQRPGRGLEWIGMIDPSDGVTRLNQKFKDKATLTVDNSSSTAYMQLSSPTSEDSAVHYCARVDVLYWYFDVWGAGTTVTVSS VL: DIVLTQSPASLAVSLGQRATISCRASKSISISGYSYMHWYQQKAGQPPKLLIYLTSNLESGVPARFSGSGSGTDFTLNIHPVEEEDAATYYCHHSRELPFTFGSGTKLEIK
BL (binding late): 21 RU
//
binder: anti-HER3 antibody M-43-01 (antibody, V domains shown, mouse hybridoma clone) VH: EVQLQQSGTVLARPGASVKMSCKASDYTFSNYWVHWVKQRPGQGLEWIGAIYPGNGDSTYYQKFKGKATLTAVTSTSTAYMDLSSLTNGDSAVYFCTRSGVGYNYYFDYWGQGTTLTVSS VL: DIQMTQSPASLSASVGETVTITCRASENIYSNLAWYQQKQGKSPQLLVYIATNLADGVPSRFSGSGSGTQFSLKINSLQPEDLGSYYCQHFYGTPFTFGTGTKLEIE
BL (binding late): 9 RU
//
binder: anti-HER3 antibody M-17-02 (antibody, V domains shown, mouse hybridoma clone) VH: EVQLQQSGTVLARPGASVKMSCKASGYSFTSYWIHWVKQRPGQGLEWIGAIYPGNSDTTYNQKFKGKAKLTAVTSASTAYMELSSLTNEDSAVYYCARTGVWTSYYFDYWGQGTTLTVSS VL: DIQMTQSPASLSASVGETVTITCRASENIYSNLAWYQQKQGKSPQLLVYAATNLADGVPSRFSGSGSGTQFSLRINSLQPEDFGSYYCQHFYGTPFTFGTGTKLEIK
BL (binding late): 10 RU

Switching to the query record.
// query BL (binding late) value for entry anti-HER3 antibody M-08-11 (antibody, V domains shown, mouse monoclonal antibody from hybridoma, tested as hybridoma supernatant or as antibody; also called M-011) VH: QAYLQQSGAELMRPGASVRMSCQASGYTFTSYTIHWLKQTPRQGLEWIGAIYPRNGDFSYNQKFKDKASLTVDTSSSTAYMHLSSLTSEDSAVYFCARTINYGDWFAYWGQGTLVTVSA VL: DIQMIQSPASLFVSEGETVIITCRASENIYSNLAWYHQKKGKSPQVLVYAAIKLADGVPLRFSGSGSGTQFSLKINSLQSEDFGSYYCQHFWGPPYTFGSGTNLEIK
61 RU
